Ref: the Immune Epitope Database (IEDB)

- Study Target: HLA-B*40:13
- Protocol Description: IEDB peptide-MHC binding, purified MHC/competitive/fluorescence; filed as Kd, often an IC50 or EC50 that approximates it; bounds were set here for any values at or beyond the usual limits of such assays
- Measurement Parameters: source organism: Yersinia pseudotuberculosis IP 31758
Quantity: Kd (nM)
Return type: number; implicit unit nM.

Fill in: Kd of FQWWRSHPL is ___
1.3

====

- Study Target: HLA-A*02:06
- Protocol Description: IEDB peptide-MHC binding, purified MHC/competitive/radioactivity; filed as Kd, often an IC50 or EC50 that approximates it; bounds were set here for any values at or beyond the usual limits of such assays
- Measurement Parameters: source organism: Mammarenavirus juninense
Quantity: Kd
Please don't drop the unit; write it after the number.

Fill in: Kd of AMPGVLSYV is ___
0.0218 µM
